Assay: Monkey cassette dosing pharmacokinetics
Assay type: in vivo
Details: male, plasma, IV
Value kind: clearance (mL/min/kg)

[[record]]
molecule = "CC(C)N1CC(=O)N(Cc2ccc(C(F)(F)F)cc2)C2(CN(c3cccnn3)C2)C1=O [Compound 13]"
result_unit = "mL/min/kg"
reported_measurement = 21.4


a. CC[C@H]1CC[C@H](N2CC(=O)N(Cc3ccc(F)c(F)c3)C3(CN(C(N)=O)C3)C2=O)CC1 [Compound 11]
b. C[C@H]1CC[C@H](N2CC(=O)N(Cc3ccc(Cl)cc3)C3(CN(C(N)=O)C3)C2=O)CC1 [Compound 18]
INPUT: Between the entries labelled a and b , which has a larger clearance value on record? Use the label to indicate which entry you chose.
OUTPUT: a
(a: 33.1 mL/min/kg, b: 12.5 mL/min/kg)
